testedOn: human ether-à-go-go-related gene (hERG) potassium channel (human, UniProt Q12809)
Sequence (Q12809 whole entry, looked up): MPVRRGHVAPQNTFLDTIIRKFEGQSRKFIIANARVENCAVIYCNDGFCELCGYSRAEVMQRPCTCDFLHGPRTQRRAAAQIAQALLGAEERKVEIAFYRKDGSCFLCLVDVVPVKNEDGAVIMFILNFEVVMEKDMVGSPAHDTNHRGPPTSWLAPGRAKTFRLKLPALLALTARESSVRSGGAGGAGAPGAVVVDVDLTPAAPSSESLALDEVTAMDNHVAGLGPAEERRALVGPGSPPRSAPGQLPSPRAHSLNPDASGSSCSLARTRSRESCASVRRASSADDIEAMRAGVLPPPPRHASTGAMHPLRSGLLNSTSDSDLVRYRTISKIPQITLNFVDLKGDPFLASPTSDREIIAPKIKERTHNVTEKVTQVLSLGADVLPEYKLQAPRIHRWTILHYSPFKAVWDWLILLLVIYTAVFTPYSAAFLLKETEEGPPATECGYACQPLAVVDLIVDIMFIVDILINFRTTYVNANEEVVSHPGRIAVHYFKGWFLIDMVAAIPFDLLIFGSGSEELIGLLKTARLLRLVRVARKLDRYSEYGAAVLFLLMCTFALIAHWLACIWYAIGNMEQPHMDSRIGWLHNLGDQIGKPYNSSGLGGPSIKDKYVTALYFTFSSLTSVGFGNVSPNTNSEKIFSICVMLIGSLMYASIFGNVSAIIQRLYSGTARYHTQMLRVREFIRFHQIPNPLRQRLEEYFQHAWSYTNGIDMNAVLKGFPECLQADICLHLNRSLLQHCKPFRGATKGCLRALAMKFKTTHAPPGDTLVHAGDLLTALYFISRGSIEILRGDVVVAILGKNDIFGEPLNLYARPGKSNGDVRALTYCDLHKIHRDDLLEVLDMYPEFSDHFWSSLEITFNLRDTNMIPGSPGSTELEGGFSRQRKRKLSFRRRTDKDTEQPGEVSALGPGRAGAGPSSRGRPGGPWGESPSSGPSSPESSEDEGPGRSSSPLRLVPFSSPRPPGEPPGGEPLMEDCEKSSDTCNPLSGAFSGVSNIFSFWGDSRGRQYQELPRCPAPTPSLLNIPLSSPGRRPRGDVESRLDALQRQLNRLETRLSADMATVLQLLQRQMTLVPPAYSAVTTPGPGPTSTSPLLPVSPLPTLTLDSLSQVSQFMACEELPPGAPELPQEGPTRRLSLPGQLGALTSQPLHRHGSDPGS
assayInfo: primary screen, population patch clamp on CHO cells stably expressing hERG; higher = less effect of the substance;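 also: peak tail current of the secondary pulse compared with the same well before compound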
In all, about 310,000 compounds went through this assay and about 14,000 (4.5%) showed an effect of 50% or more. The effect is printed as a negative number. This excerpt belongs to a sample that is enriched for strong results.
measurementType: hERG current change (%, negative = inhibition) at 10uM

{"columns": ["compound", "assayResult"],
 "data": [
  ["CCCCn1c(N)c(N(CCC(C)C)C(=O)c2cc(Cl)nc3ccccc23)c(=O)[nH]c1=O", "15.2%"],
  ["COc1ccc(-c2cc(=O)oc3cc(OCC(=O)N4C[C@H]5C[C@@H](C4)c4cccc(=O)n4C5)ccc23)cc1", "-53.5%"],
  ["Cc1c(C(=O)Nc2cc(S(=O)(=O)N3CCOCC3)ccc2N2CCN(C)CC2)oc2ccccc12", "-10.8%"],
  ["CO/N=C(\\C(=O)N[C@@H]1C(=O)N2C(C(=O)[O-])=C(COC(N)=O)CS[C@H]12)c1ccco1.[Na+]", "18.9%"],
  ["C=CCOC(=O)C1=C[C@@H](c2ccc(Br)cc2)C[C@@H](OCc2ccc(CO)cc2)O1", "-14.7%"],
  ["O=C(COC(=O)C1CC(=O)N(Cc2ccccc2)C1)Nc1ccc2c(c1)OCO2 (centres unmarked)", "5.98%"],
  ["CCC(C)NC(=O)C1CCN(c2nc(OC)nc(OC)n2)CC1 (centres unmarked)", "-4.66%"],
  ["COc1ccc(-c2[nH]ncc2CN2CCCOc3c(cccc3OC)C2)c(OC)c1", "-48%"],
  ["OCCc1ccc(O)c(-n2nc3ccccc3n2)c1", "-17.1%"],
  ["COC(=O)CN(c1cccc(C(C)=O)c1)S(C)(=O)=O", "9.02%"],
  ["COc1ccc(C2SCC(=O)N2CC23CC4CC(CC(C4)C2)C3)cc1 (centres unmarked)", "3.15%"],
  ["CCCOc1ccc(C(C)=O)cc1CC(C(N)=O)C(N)=O", "14.9%"],
  ["COc1ccc(-c2[nH]ncc2CN2CCCCCCC2)c(OC)c1", "-54.7%"],
  ["Cc1ccc(N=C(N(C)C)P(=O)(N(C)C)N(C)C)cc1", "17.4%"]
]}

---

testedOn: human ether-à-go-go-related gene (hERG) potassium channel (human)
assayInfo: primary screen, population patch clamp on CHO cells stably expressing hERG; higher = less effect of the substance
Among all 310,000 compounds or so, about 14,000 (4.5%) showed an effect of 50% or more. Effects have a minus sign here. The list comes from a sample in which strong results are over-represented; it also holds close analogues and randomly drawn compounds.
Measured hERG current change (%, negative = inhibition) at 10uM accompanies every entry in the list below.
measurementType: hERG current change (%, negative = inhibition) at 10uM (%)

{"columns": ["compound", "assayResult"],
 "data": [
  ["COC(=O)C1=C(c2ccc(OC)c(OC)c2)C[C@@H]2CC[C@H]1N2C(=O)NCCCOC(C)C", 15.3],
  ["Clc1ccc(CNCc2cccs2)cc1Cl", 7.52],
  ["O=C(C1CCCCC1)N(Cc1ccccc1)c1ccccn1", 1.25],
  ["CC(NC(=O)C(=O)NCCCn1ccnc1)c1ccccc1 (stereo not shown)", 15.6]
]}

---

testedOn: human ether-à-go-go-related gene (hERG) potassium channel (human)
assayInfo: primary screen, population patch clamp on CHO cells stably expressing hERG; higher = less effect of the substance
Screen size: about 310,000 compounds; about 14,000 (4.5%) showed an effect of 50% or more. Effects have a minus sign here. This is one part of a sample in which strong results are shown more often than they occur.
Tag: T if measured hERG current change (%, negative = inhibition) at 10uM is not below -20%, F if it is.

{"columns": ["compound", "answerLabel"],
 "data": [
  ["O=C1CC(C(F)(F)C(F)(F)C(F)(F)F)=Nc2ccccc2N1", "T"],
  ["Nc1nc2c(Cl)ccc(Cl)c2s1", "T"],
  ["Cc1ccc2oc(=O)c3cnn(CC(=O)N(CCN(C)C)Cc4ccco4)c3c2c1", "F"],
  ["CC(=O)N1CCCc2ccccc21", "T"],
  ["O=C(COc1ccccc1)NC1CCSC1=O (centres unmarked)", "F"],
  ["O=C(O)c1ccccc1OCCOc1ccccc1", "T"],
  ["CCCNCCC(c1ccco1)c1ccccc1OC (centres unmarked)", "F"],
  ["COc1ccc(CNCCC(c2ccc(OC)cc2)c2ccccc2OC)cc1 (centres unmarked)", "F"],
  ["COc1ccc(CCC(C)NCCc2ccccc2)cc1 (centres unmarked)", "F"],
  ["CCCCCCCNC(=O)COc1ccc2c(c1)C(=O)CC(C)(C)O2", "T"],
  ["CCCC(=O)n1nc(-c2ccco2)nc1SCc1ccccc1", "T"],
  ["O=C1[C@@H]2CSCN2C(=O)CN1CCc1cccc(F)c1", "F"],
  ["O=C(COc1ccc2c3c(c(=O)oc2c1)CCC3)NC1CCN(Cc2ccccc2)CC1", "F"],
  ["O=C1C2CSCN2C(=O)CN1CCCN1CCN(C(c2ccccc2)c2ccccc2)CC1 (centres unmarked)", "F"],
  ["Cn1cc(Cl)c(-c2nc3ccccc3[nH]2)n1", "T"],
  ["CS(=O)(=O)c1ccc(NCCc2ccccn2)c([N+](=O)[O-])c1", "F"],
  ["CCOP(=O)(c1ccccc1)c1nc(-c2ccccc2Cl)oc1N1CCCCC1 (centres unmarked)", "T"],
  ["Cc1cc(OCC(=O)NC2CCN(Cc3ccccc3)CC2)c2c(C)cc(=O)oc2c1", "F"],
  ["CNS(=O)(=O)c1ccc2c3c(cccc13)C(=O)N2", "T"],
  ["CC(C)=CCc1c(-c2ccc(O)cc2O)oc2c3c(cc(O)c2c1=O)OC(C)(C)C=C3", "T"],
  ["CCCCc1cc(=O)oc2cc(OCC(=O)NCC3CCC(C(=O)O)CC3)ccc12 (centres unmarked)", "T"],
  ["CCOP(=O)(c1ccccc1)c1nc(-c2ccc(F)cc2)oc1N1CCCCC1 (centres unmarked)", "F"],
  ["COc1cc([C@@H]2c3cc4c(cc3[C@@H](O)[C@H]3COC(=O)[C@H]23)OCO4)cc(OC)c1O[Si](C)(C)C(C)(C)C", "T"],
  ["Oc1cccc(Nc2nc(N3CCOCC3)nc(N3CCOCC3)n2)c1", "T"],
  ["CC1=C(/C=C/c2ccccc2)CCN(C)C1.Cl", "F"]
]}

---

testedOn: human ether-à-go-go-related gene (hERG) potassium channel (human, UniProt Q12809)
assayInfo: primary screen, population patch clamp on CHO cells stably expressing hERG; higher = less effect of the substance
The whole screen tested about 310,000 compounds, of which about 14,000 (4.5%) showed an effect of 50% or more. The effect is printed as a negative number. What follows is part of a selection rich in strong results, with near analogues and random picks from the rest.
Measured hERG current change (%, negative = inhibition) at 10uM accompanies every entry in the list below.
measurementType: hERG current change (%, negative = inhibition) at 10uM (%)

{"columns": ["smilesInput", "assayResult"],
 "data": [
  ["Cc1cccc(-n2cnc3cc([N+](=O)[O-])ccc32)c1", -51.9],
  ["O=C(NCc1cccnc1)c1ccccc1NS(=O)(=O)c1ccc(F)cc1F", 9.6],
  ["COC(=O)C1=C(c2ccc(F)cc2OCc2ccccc2)C[C@@H]2CC[C@H]1N2C(=O)N1CCCCC1", -9.9]
]}

---

testedOn: human ether-à-go-go-related gene (hERG) potassium channel (human, UniProt Q12809)
assayInfo: primary screen, population patch clamp on CHO cells stably expressing hERG; higher = less effect of the substance
About 14,000 (4.5%) of roughly 310,000 compounds showed an effect of 50% or more. The effect is printed as a negative number. This excerpt belongs to a sample that is enriched for strong results.
Tag: true (1) if measured hERG current change (%, negative = inhibition) at 10uM is not below -40%, false (0) if it is.

{"columns": ["molecule", "testedOn", "answerLabel"],
 "data": [
  ["CN(C)CCNc1nc2c(c(=O)[nH]c(=O)n2C)n1CC(O)COc1ccc(Cl)cc1 (stereo not shown)", "human ether-à-go-go-related gene (hERG) potassium channel (human, UniProt Q12809)", "true (1)"],
  ["N=c1c(C(=O)NC2CCCCC2)cc2c(=O)n3ccccc3nc2n1Cc1ccccc1", "human ether-à-go-go-related gene (hERG) potassium channel (human, UniProt Q12809)", "false (0)"],
  ["CCCn1c(N)c(Sc2ccc(Cl)cc2)c(=O)n(CCC)c1=O", "human ether-à-go-go-related gene (hERG) potassium channel (human, UniProt Q12809)", "false (0)"],
  ["Cc1ccc(NC(=O)CCCCCN2C(=O)[C@@H]3Cc4ccccc4CN3C2=O)c(C)c1", "human ether-à-go-go-related gene (hERG) potassium channel (human, UniProt Q12809)", "true (1)"],
  ["CCCCn1c(N)c(Sc2ccc([N+](=O)[O-])cc2)c(=O)[nH]c1=O", "human ether-à-go-go-related gene (hERG) potassium channel (human, UniProt Q12809)", "false (0)"],
  ["CC(C)Cn1c(NCCN(C)C)nc2c1c(=O)[nH]c(=O)n2C", "human ether-à-go-go-related gene (hERG) potassium channel (human, UniProt Q12809)", "true (1)"],
  ["CCn1c(=N)c(S(=O)(=O)c2ccc(F)cc2)cc2c(=O)n3ccccc3nc21", "human ether-à-go-go-related gene (hERG) potassium channel (human, UniProt Q12809)", "true (1)"]
]}
